study-system: human mGlu5a receptor (Homo sapiens, UniProt P41594)
Construct: expressed in transfected cells
Sequence (P41594 21-1180 isoform P41594-2 limits assumed): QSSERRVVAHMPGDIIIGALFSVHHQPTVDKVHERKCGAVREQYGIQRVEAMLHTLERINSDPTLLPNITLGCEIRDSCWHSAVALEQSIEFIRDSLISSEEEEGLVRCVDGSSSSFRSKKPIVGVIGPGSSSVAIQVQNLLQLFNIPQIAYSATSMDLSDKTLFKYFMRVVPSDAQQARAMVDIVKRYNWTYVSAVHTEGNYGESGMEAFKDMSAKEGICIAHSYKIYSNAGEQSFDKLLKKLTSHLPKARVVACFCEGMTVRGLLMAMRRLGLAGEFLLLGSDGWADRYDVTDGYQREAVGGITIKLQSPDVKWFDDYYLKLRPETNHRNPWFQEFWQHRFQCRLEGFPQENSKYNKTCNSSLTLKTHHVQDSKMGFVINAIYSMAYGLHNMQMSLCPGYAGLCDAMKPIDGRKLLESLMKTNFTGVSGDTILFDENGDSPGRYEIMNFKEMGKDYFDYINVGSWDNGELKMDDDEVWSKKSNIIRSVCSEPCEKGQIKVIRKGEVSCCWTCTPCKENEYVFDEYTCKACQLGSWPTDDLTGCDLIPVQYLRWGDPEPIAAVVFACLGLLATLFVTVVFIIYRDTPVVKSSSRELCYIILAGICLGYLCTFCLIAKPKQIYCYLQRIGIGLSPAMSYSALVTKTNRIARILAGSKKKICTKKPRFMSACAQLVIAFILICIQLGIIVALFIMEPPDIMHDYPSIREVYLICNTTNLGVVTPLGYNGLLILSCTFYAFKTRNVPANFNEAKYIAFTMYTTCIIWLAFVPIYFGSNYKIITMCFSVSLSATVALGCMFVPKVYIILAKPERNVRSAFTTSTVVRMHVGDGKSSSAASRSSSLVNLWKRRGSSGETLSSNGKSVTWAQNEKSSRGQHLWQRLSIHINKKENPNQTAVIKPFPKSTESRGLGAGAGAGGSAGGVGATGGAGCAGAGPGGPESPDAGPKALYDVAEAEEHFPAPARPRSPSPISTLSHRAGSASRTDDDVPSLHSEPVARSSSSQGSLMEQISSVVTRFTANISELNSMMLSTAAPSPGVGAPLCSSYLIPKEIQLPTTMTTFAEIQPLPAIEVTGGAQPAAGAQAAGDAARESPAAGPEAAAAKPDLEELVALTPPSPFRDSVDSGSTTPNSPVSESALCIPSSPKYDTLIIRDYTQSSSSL
assay-comment: Intracellular Ca2+ mobilization assay
Assay type: cell-based
details: HEK293; maximal response in % of the maximal stimulatory effect obtained with saturating concentrations of L-glutamate; HEK-293 human mGlu5a cells, L-glutamate at EC20; read-out: Efficacy (%)
measured-attribute: Emax (%)

{"compound": "COC1CCCC(OC)C1Nc1ncc(C#Cc2ccccc2)cn1 (mixture of isomers)", "u": "%", "Emax": 105}
{"compound": "CN1CCN(Cc2ccc(C#Cc3ccccc3)cn2)C1=O", "u": "%", "Emax": 119}
{"compound": "O=C1OCCN1Cc1ccc(C#Cc2ccccc2)cn1", "u": "%", "Emax": 122}

Data provenance is patent US8716316B2.
